# target system: T1, Tau peptide Start 415 Stop 434
# T1 peptide: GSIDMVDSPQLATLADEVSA
# run description: Pepscan ELISA on an array of linear 20-mer Tau 441 peptides
# Parameters: unit not given here
observation type: peptide ELISA signal (no name or unit printed)
Just the number, please, no unit attached.

Answered cases to consult:
binder: PT81 monoclonal antibody (recombinant, mouse IgG2a/kappa) (antibody, V domains shown) VH: QVQLQQPGAELVRPGASVILSCKASGYTFTNSWIHWVKQRPGRVLEWIGRIDPNSGGTRYNENFKSKATLTVDKPSSTAYMQLSSLTSEDSAVYFCSRGVLHDYWGQGTTLTVSS VL: DIVITQDELSNPVTSGESVSISCRSSKSLLYKDGKTYLNWFLQRPGQSPQLLIYLMSTRASGVSDRFSVSGSGTDFTLEISRVQAEDVGVYYCQQLVEYPYTFGGGTKLEIKR
measured value: 78
--
binder: PT69 monoclonal antibody (recombinant, mouse IgG2a/kappa) (antibody, V domains shown, also called PT69/PT87; PT69 (PT1B548)) VH: QVQLQQPGAELVKPGASVKMSCKASGYTFTNYWITWVKQRPGQGLEWIGDIYPGSGRTKSNEKFKNKATLTADTSSSTAYMQLSSLTSEDSAVYYCTRRWGLDYWGQGTTLTVSS VL: DIVITQDELSNPVTSGESVSISCRSNKSLLYKDGKTYLNWFLQRPGQSPQLLIYLMSTRASGVSDRFSGSGSGTDFTLEISRVKAEDVGVYYCQQLVDYPLTFGAGTKLELKR
measured value: 2830

Input line: // fetch peptide ELISA signal (no name or unit printed) given entry PT53 monoclonal antibody (recombinant, mouse IgG2a/kappa) (antibody, V domains shown, also called PT50/PT53) VH: EVKLMESGGGLVQPGASLRLSCAASGFTFTDYYMSWVRQPPGKAPEWLALIRNKANGYTTKYAASVKGRFTISRDNSQNILYLQMNTLRAEDSATYYCVKAVWFAYWGQGTLVTVSA VL: DIVITQDELSNPVTSGESVSISCRSSKSLLYKDGKTYLNWFLQRPGQSPQLLIYLMSTRASGVSDRFSGSGSGTDFTLEISRVKAEDVGVYYCLQLVEYPYTFGGGTKLEIKR
Output line: 40

Input line: // fetch peptide ELISA signal (no name or unit printed) given entry PT66 monoclonal antibody (recombinant, mouse IgG2a/kappa) (antibody, V domains shown, also called PT66 (PT1B545)) VH: QVQLQQPGAELVKPGASVKMSCKASGYTFTSYWITWVKQRPGQGLEWIGDIHPGRGSTKSNEKFKSKATLTVDTSSSTAYMQFSSLTSEDSAVYYCARRWGFDYWGQGTTLTVSS VL: DIVITQDELSNPVTSGESVSISCRSSKSLLYKDGKTYLNWFLQRPGQSPQLLIYLMSTRASGVSDRFSGSGSGTDFTLEISRVKAEDVGVYYCQQLVDYPLTFGAGTKLELKR
Output line: 2930
